# assay overview: Quantitative High-Throughput drug screen in 47 multiple myeloma cell lines against the NCATS MIPE library collection: KMS28BM_JCRB cell viability assay (AID 1919874); note: nearly all actives have a fitted effect of over 35% in size; note: potency is the fitted concentration of half-maximal effect
# measurement parameters: CellTiter-Glo ATP, 48 h; series mostly up to 45.8 µM
Records with an inconclusive call do not appear. The source made the active and inactive calls. Calls come from the whole dose curve; as a rule, active = well fitted cell-killing curve with a large enough effect; inconclusive = small, poorly fitted or top-dose-only effect, or effect the other way; inactive = no such curve, though single readings can be large or run the other way. Starred links: 1 amine or outer side, 2 acyl side, 3 side chain; linkers in the order of their positions; H or OH if unused. Positions of bridges follow the written chain, without caps; N, C: chain ends. Non-standard residues stand in square brackets, D forms with d. Residues, ends and D or L forms follow the SMILES beside them. Chains are numbered I, II in the order given. Actinocin(9to1) = Cc1c2oc3c(C)ccc(C(=O)[*:1])c3nc-2c(C(=O)[*:2])c(N)c1=O; NMeV = CN[CH](C(=O)O)C(C)C; Sar = CNCC(=O)O
attribute measured: Potency

Example entries begin here.
CC(C)[C@H](CO)Nc1nc(Nc2cccc(Cl)c2)c2ncn(C(C)C)c2n1    18.7 µM (active)
CCc1cnn2c(NCc3ccc[n+]([O-])c3)cc(N3CCCC[C@@H]3CCO)nc12    0.0296 µM (active)
Cc1c2oc3c(C)ccc(C(=O)NC4C(=O)NC(C(C)C)C(=O)N5CCCC5C(=O)N(C)CC(=O)N(C)C(C(C)C)C(=O)OC4C)c3nc-2c(C(=O)NC2C(=O)NC(C(C)C)C(=O)N3CCCC3C(=O)N(C)CC(=O)N(C)C(C(C)C)C(=O)OC2C)c(N)c1=O (stereo unspecified) (I: TVP[Sar][NMeV] / II: TVP[Sar][NMeV]; ester I:1-I:C, II:1-II:C; linker I:N-II:N via Actinocin(9to1); configuration not given here)    inactive
O=C(Nc1cc2cc[nH]c2cn1)c1ccccc1    5.26 µM (active)
c1cncc(CN2CCC(n3ncc4c(N5CCOCC5)nc(-c5ccc6[nH]ccc6c5)nc43)CC2)c1    11.8 µM (active)

Could you now look at the following compound, please?
May I ask what Potency has been recorded for C=C1CCC2[C@](C)(CO)C(O)CC[C@]2(C)C1CC=C1C(=O)OCC1O (stereo partly specified) ?
inactive

----------
# Test system: OV90
# assay overview: Primary qHTS to identify gynecologic anti-cancer compounds using libraries of approved drugs and bioactive compounds (AID 1345084); note: nearly all actives have a fitted effect of over 55% in size
# measurement parameters: Gynecologic cancer cell panel viability, ATPlite luminescence, 48 h; series mostly up to 57.5 µM
Records with an inconclusive call do not appear. Active and inactive are the calls of the source. Calls come from the whole dose curve; as a rule, active = well fitted cell-killing curve with a large enough effect; inconclusive = small, poorly fitted or top-dose-only effect, or effect the other way; inactive = flat fitted curve, though single readings scatter.
The categories you may choose from are active, inactive

Cc1coc2c1C(=O)C(=O)c1c-2ccc2c(C)cccc12    inactive
CC(C)n1cnc2c(NCCc3ccc(O)cc3)nc(-c3csc4ccccc34)nc21    inactive
C[N+]1(C)[C@@H]2C[C@@H](OC(=O)C(O)(c3cccs3)c3cccs3)C[C@H]1[C@@H]1O[C@@H]12    inactive
O=C(O)c1ccc(Nc2ncc3c(n2)-c2ccc(Cl)cc2C(c2c(F)cccc2F)=NC3)cc1    inactive
N[C@H]1CN(c2c(F)cc3c(=O)c(C(=O)O)cn(C4C[C@@H]4F)c3c2Cl)CC12CC2 (some centres not stated)    inactive
CS(=O)(=O)N1CCc2c(-c3cnc(N)nc3)nc(N3CCOCC3)nc21    active

Query molecule follows.
Write down the call the test reported for this molecule. Item: c1ccc2c(Oc3nc(Nc4ccc(N5CCOCC5)cc4)c4ncn(C5CCCCC5)c4n3)cccc2c1
inactive
